- experimental_target: UniProt:Q86WV6
- test: Agonist activity to C-terminal domain STING (139 to 379 residues) in human PBMC assessed as IFN-beta secretion
- Format: cell-based
endpoint_name: EC50 (nM)
Please give a number only; it is taken to be in nM.

[ask] // Input: CCn1nc(C)cc1C(=O)/N=c1\[nH]c2cc(C=O)cc(OCCCN3CCOCC3)c2n1CCCCn1c(NC(=O)c2cc(C)nn2CC)nc2cc(C(N)=O)cc(OC)c21 . Output its EC50 only.
[reply] 130

====

- experimental_target: Stimulator of interferon genes protein (Homo sapiens, UniProt Q86WV6)
- Sequence (Q86WV6 whole entry): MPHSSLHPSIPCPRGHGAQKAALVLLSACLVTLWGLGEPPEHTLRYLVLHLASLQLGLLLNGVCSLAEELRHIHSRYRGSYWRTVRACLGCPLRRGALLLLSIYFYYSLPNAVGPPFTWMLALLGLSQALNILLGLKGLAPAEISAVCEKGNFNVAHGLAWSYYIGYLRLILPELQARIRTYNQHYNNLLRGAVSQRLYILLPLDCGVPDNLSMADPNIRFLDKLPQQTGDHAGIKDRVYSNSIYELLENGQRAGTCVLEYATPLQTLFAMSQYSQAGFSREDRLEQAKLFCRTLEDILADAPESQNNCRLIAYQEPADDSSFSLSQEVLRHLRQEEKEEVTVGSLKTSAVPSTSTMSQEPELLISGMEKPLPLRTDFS
- test: Agonist activity at human STING incubated for 3 hrs by fluorescence based analysis
endpoint_name: pIC50
Note: pIC50 values are expressed as the negative base-10 logarithm of concentration in M.

[ask] // Input: COc1ccc2[nH]c3c(C)c(C)ccc3c(=O)c2c1 . Output its pIC50 only.
[reply] 5.72
